Reference source: patent US9133181B2

# test-system: human full-length recombinant PKC βII (Homo sapiens, UniProt P05771)
# Construct: Active human full-length recombinant PKC βII; purchased Invitrogen GmbH, Darmstadt, Germany
# Sequence (P05771 1-673 isoform P05771-2): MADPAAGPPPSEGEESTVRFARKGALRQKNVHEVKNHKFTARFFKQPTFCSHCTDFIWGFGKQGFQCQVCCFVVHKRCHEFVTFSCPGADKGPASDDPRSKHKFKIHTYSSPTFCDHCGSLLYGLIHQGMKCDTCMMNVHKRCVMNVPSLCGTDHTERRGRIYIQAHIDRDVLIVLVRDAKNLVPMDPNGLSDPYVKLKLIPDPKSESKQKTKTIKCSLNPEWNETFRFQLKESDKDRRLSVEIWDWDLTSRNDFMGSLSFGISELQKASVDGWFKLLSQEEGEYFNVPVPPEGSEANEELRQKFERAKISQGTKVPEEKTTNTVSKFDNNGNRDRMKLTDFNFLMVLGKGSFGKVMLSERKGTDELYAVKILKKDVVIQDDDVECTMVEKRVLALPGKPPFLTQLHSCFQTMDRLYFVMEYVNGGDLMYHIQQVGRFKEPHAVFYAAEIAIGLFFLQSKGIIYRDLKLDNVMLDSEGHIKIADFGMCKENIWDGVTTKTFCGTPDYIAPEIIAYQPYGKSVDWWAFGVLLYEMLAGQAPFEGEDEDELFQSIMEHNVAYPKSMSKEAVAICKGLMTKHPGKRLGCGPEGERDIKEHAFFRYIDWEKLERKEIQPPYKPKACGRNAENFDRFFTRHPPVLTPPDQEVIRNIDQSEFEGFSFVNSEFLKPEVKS
# test-protocol: Determination of PKC βII inhibition (Caliper mobility shift kinase assay)
# Format: biochemical
# test-parameters: final compound concentration 1.14 μM (±0.15 μM); 60 min incubation at 32° C.
parameter: inhibition at 1.14 µM

// inhibition at 1.14 µM lookup, key: COC(=O)CN1CC(C)(C)N(Cc2cc(-c3ccc(O)cc3)nc3[nH]nc(C)c23)CC1(C)C [Example 86]
86%

Subsequent entry: Cc1n[nH]c2nc(-c3ccc(O)cc3F)cc(CN3CCNC[C@H]3c3ccc(C(F)(F)F)cc3)c12 [Example 104]
83%

Subsequent entry: Cc1n[nH]c2nc(-c3ccc(O)cc3F)cc(CN3CC(C)(C)NCC3(C)C)c12 [Example 28]
97%

Subsequent entry: Cc1n[nH]c2nc(-c3ccc(O)cc3F)cc(CN3C[C@@H](C(C)C)NCC3(C)C)c12 [Example 130]
98%

###

# test-system: human full-length recombinant PKC βII (Homo sapiens, UniProt P05771)
# Construct: Active human full-length recombinant PKC βII; purchased Invitrogen GmbH, Darmstadt, Germany
# test-protocol: Determination of PKC βII inhibition (Caliper mobility shift kinase assay)
# Assay type: biochemical
# test-parameters: final compound concentration 1.14 μM (±0.15 μM); 60 min incubation at 32° C.
# Protocol: Determination of PKC βII Inhibition PKC βII inhibition was determined according to the following protocol: […] Test compounds were diluted to three times the test concentration in buffer 1 (30 mM Hepes-NaOH, pH 7.4, 0.01% Pluronic F-68 and 3% (v/v) DMSO). […] Phosphorylation of the substrate peptide was then detected on a Caliper 3000 instrument essentially as described by Pommereau et al (J. Biomol. Screening 2004, 9(5), 409-416). […]
Values of inhibition at 1.14 µM greater than or equal to 60% map to yes (1); values below map to no (0).

Given CC[C@@]1(C)CNC(C)(C)CN1Cc1cc(-c2ccc(O)cc2)nc2[nH]nc(C)c12 , state whether its inhibition at 1.14 µM is at least 60%.
yes (1)

Subsequent entry: Cc1n[nH]c2nc(-c3ccc(O)cc3F)cc(CN3CCNCC3c3ccc(C(C)C)cc3)c12 (centres unmarked)
yes (1)

Subsequent entry: Cc1n[nH]c2nc(-c3ccc(O)cc3)cc(CN3CCNC[C@H]3c3ccc(C(F)(F)F)cc3)c12
no (0)

Subsequent entry: Cc1n[nH]c2nc(-c3ccc(O)cc3F)cc(CN3CC(C)(C)N(CCC(F)(F)F)CC3(C)C)c12
yes (1)

Subsequent entry: Cc1n[nH]c2nc(-c3ccc(O)cc3F)cc(CN3CCNCC3c3cccc(F)c3)c12 (centres unmarked)
yes (1)

Subsequent entry: Cc1n[nH]c2nc(-c3ccc(O)cc3)cc(CN3CCNC[C@H]3CC(F)(F)F)c12
yes (1)

Subsequent entry: CC[C@]1(C)CNC(C)(C)CN1Cc1cc(-c2ccc(O)cc2F)nc2[nH]nc(C)c12
yes (1)

Subsequent entry: Cc1n[nH]c2nc(-c3ccc(O)cc3F)cc(CN3CCNC[C@@H]3c3ccc(C(F)(F)F)cc3)c12
no (0)

###

# test-system: human full-length recombinant PKC βII (Homo sapiens)
# Construct: Active human full-length recombinant PKC βII; purchased Invitrogen GmbH, Darmstadt, Germany
# test-protocol: Determination of PKC βII inhibition (Caliper mobility shift kinase assay)
# Type: biochemical
# test-parameters: final compound concentration 1.14 μM (±0.15 μM); 60 min incubation at 32° C.
parameter: inhibition at 1.14 µM (%)
Response body: numeric value in %, unit text excluded.

Please state recorded inhibition at 1.14 µM (tested on human full-length recombinant PKC βII (Homo sapiens)) of Cc1n[nH]c2nc(-c3ccc(O)cc3)cc(CN3CCNCC3c3ccc(C(F)(F)F)cc3)c12 (stereo not shown) [Example 44]
38

Subsequent entry: Cc1n[nH]c2nc(-c3ccc(O)cc3)cc(CN3CCNC[C@@H]3c3ccc(C(F)(F)F)cc3)c12 [Example 113]
81

Subsequent entry: COCC(=O)N1CCCN(Cc2cc(-c3ccc(O)cc3F)nc3[nH]nc(C)c23)CC1C (stereo not shown) [Example 79]
65

Subsequent entry: Cc1n[nH]c2nc(-c3ccc(O)cc3F)cc(CN3C[C@@H](c4ccccc4)NC[C@@H]3C)c12 [Example 99]
92
